Reported Fnorm (MST screening) values are given for each entry in this list.
target: DNMT2 (Homo sapiens); construct: Recombinant human DNMT2 (full-length); His-tag; made in house; host or cells: E. coli; assay: MST displacement assay with fluorescent FTAD probe; format: binding; parameters: unit not given here; details: ligand 100 μM, FTAD probe
Sequence (O14717 whole entry): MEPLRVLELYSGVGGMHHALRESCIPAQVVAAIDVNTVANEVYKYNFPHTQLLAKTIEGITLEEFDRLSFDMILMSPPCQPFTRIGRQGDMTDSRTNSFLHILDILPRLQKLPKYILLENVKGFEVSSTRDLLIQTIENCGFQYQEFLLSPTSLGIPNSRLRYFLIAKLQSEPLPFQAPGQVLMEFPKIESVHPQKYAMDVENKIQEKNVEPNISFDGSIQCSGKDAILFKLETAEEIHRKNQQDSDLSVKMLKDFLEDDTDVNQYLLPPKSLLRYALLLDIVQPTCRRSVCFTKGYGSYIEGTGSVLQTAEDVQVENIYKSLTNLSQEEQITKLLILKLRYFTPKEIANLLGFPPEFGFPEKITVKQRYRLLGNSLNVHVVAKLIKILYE

structure | Fnorm (MST screening)
CCc1ccc(C(=O)NCC2(C(=O)N[C@@H](CC(=O)NCC(N)=O)Cc3c[nH]c4ccccc34)CC2)cc1 | 903.3

Which Fnorm (MST screening) is listed for "CCc1ccc(C(=O)NC[C@H](N)C(=O)N[C@@H](CC(=O)NCC(N)=O)Cc2c[nH]c3ccccc23)cc1" ?
860.8

Which Fnorm (MST screening) is listed for "CCc1ccc(C(=O)NCC2(C(=O)N[C@@H](CC(=O)N[C@@H](Cc3ccccc3)C(N)=O)Cc3ccccc3)CC2)cc1" ?
858.8

Which Fnorm (MST screening) is listed for "NC(=O)CNC(=O)C[C@@H](Cc1ccccc1)NC(=O)C1(CNC(=O)c2ccccc2)CC1" ?
868.2

Which Fnorm (MST screening) is listed for "CCc1ccc(C(=O)NCC2(C(=O)N[C@@H](CC(=O)N[C@@H](C(N)=O)[C@@H](C)O)Cc3c[nH]c4ccccc34)CC2)cc1" ?
865.3

Which Fnorm (MST screening) is listed for "CCc1ccc(C(=O)NCC2(C(=O)N(C)[C@@H](CC(=O)NCC(N)=O)Cc3ccccc3)CC2)cc1" ?
862.6

Which Fnorm (MST screening) is listed for "NC(=O)CNC(=O)C[C@@H](Cc1ccccc1)NC(=O)C1(CNC(=O)c2ccc(C3(C(F)(F)F)N=N3)cc2)CC1" ?
876.5
